# target: STING (Homo sapiens, UniProt Q86WV6, G230A/H232R/R293Q/R71H)
# Sequence (Q86WV6 whole entry R71H/G230A/H232R/R293Q): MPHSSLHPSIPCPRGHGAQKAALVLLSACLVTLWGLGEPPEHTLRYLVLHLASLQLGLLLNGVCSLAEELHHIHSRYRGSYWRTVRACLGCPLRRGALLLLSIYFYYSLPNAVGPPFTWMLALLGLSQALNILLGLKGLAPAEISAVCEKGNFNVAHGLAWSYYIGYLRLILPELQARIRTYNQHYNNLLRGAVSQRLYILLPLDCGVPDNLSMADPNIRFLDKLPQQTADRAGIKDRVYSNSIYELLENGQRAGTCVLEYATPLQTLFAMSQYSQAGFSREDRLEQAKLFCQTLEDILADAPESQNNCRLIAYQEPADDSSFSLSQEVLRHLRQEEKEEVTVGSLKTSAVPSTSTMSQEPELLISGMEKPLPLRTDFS
# experimental-protocol: STING reporter assay (luciferase) in THP1-Dual KO-IFNAR2 cells stimulated with 2′3′cGAMP
# recorded-conditions: 2′3′cGAMP 15 μM final, 24 h, luciferase reporter activity, read-out: Pharmaron, THP1_IFNAR2 STING 24 h Luci Normalized: GeoMean EC50
pEC50: −log10 of the molar value.
Below, each entry is listed alongside its reported pEC50.
recorded-endpoint: pEC50

1. O=C(Nc1c[nH]c2ccc(OCc3ccc(C(F)(F)F)cc3)cc12)c1ncccc1F [Compound 152] ... 6.00 to 6.70
2. O=C(Nc1c[nH]c2ccc(OCC[C@@H]3C[C@@H]4CN(CC(F)(F)F)C[C@@H]4C3)cc12)C1CC2(CC2)C1 [Compound 222] ... 6.00 to 6.70
3. O=C(Nc1c[nH]c2ccc(O[C@H]3C[C@@H](c4ccc(C(F)(F)F)cc4)C3)cc12)c1cccnc1 [Compound 169] ... 6.70 to 7.40
4. Cn1ccnc1C(=O)Nc1c[nH]c2ccc(O[C@H]3C[C@H](c4ccc(C(F)(F)F)cc4)C3)cc12 [Compound 220] ... 6.00 to 6.70
5. O=C(Nc1c[nH]c2ccc(O[C@H]3C[C@@H](c4ccc(C(F)(F)F)cc4)C3)cc12)c1cncs1 [Compound 178] ... 6.00 to 6.70
6. O=C(Nc1c[nH]c2ccc(OCc3ccc(C(F)(F)F)cc3)cc12)c1ccn[nH]1 [Compound 137] ... 6.00 to 6.70
